Data origin, for the record: patent US20220169645A1

Target: BTK-C481S (Homo sapiens, UniProt Q06187, C481S)
Sequence (Q06187 whole entry C481S): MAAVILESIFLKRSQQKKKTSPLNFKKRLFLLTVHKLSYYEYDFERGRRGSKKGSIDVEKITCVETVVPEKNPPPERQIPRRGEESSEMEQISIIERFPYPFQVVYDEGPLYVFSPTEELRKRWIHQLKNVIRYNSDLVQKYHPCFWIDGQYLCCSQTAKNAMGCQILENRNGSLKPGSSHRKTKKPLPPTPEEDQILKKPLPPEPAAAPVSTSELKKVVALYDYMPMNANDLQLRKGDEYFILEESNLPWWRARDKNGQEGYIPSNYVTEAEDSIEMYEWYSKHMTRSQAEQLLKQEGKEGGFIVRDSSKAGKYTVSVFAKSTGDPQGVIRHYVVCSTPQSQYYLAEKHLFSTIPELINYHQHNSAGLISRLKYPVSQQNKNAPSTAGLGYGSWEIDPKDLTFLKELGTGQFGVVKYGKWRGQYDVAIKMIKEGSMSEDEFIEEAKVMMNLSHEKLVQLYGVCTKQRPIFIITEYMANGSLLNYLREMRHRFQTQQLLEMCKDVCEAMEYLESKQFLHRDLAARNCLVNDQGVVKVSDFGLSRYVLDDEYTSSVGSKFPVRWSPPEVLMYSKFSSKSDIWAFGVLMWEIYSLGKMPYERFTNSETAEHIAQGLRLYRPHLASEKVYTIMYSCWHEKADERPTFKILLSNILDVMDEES
Experiment: BTK-C481S kinase activity assay (ADP-Glo)
Conditions: BTK kinase inhibition, 30 min preincubation, 90 min reaction
Could you please report measured log10 of IC50 for the items listed next?
Quick note: numbers are log10 of IC50, with nM as the unit.

[ask] Sample "COc1ccc(F)cc1C(=O)NCc1ccc(-n2nc(C3CCOCC3)c(N)c2C(N)=O)cc1" — what was its log10 of IC50?
[reply] 0.76

[ask] Follow-up item: "COc1ccc(F)cc1C(=O)NCc1ccc(-n2nc(C3CCCC3)c(N)c2C(N)=O)cc1"
[reply] 0.62

[ask] Follow-up item: "COc1ccc(F)cc1C(=O)NCc1ccc(-n2nc(N3CCOCC3)c(N)c2C(N)=O)cc1"
[reply] 1.97

[ask] Follow-up item: COc1ccc(F)cc1C(=O)NCc1ccc(-n2nc(C3CCOC3)c(N)c2C(N)=O)cc1 (stereo not shown)
[reply] 1.04

[ask] Follow-up item: "COc1ccc(F)cc1C(=O)NCc1ccc(-n2nc(-c3cccs3)c(N)c2C(N)=O)cc1"
[reply] 0.49

[ask] Follow-up item: "CCOc1cc(CNC(=O)c2cc(F)ccc2OC)cc(F)c1-n1nc(C(C)C)c(N)c1C(N)=O"
[reply] 1.83

[ask] Follow-up item: COc1ccc(F)cc1C(=O)NCc1ccc(-n2nc(C3CCCOC3)c(N)c2C(N)=O)cc1 (stereo not shown)
[reply] 0.43

[ask] Follow-up item: "CCOc1cc(CNC(=O)c2cc(F)ccc2OC)ccc1-n1nc(C(C)C)c(N)c1C(N)=O"
[reply] 1.04

[ask] Follow-up item: "COc1ccccc1C(=O)NCc1ccc(-n2nc(C(C)C)c(N)c2C(N)=O)cc1"
[reply] 1.15

[ask] Follow-up item: "CC(C)c1nn(-c2ccc(CNC(=O)c3cccc4c3OCC4)cc2)c(C(N)=O)c1N"
[reply] 1.78

[ask] Follow-up item: "COc1ccc(F)cc1C(=O)NCc1ccc(-n2nc(C(C)C)c(N)c2C(N)=O)c(F)c1"
[reply] 1.43

[ask] Follow-up item: "COc1ccc(F)cc1C(=O)NCc1ccc(-n2nc(C3CCC(F)(F)CC3)c(N)c2C(N)=O)cc1"
[reply] 0.90

[ask] Follow-up item: "COc1ccc(F)cc1C(=O)NCc1ccc(-n2nc(C(C)C)c(N)c2C(N)=O)cc1"
[reply] 0.56

* * *

# IC50 measurements, system: UniProtKB Q06187
Dear colleague, please return just the value in nM, with no unit written.

[ask] Sample COc1ccc(F)cc1C(=O)NCc1ccc(-n2nc(C3CCCC3)c(N)c2C(N)=O)cc1 [Example A15] — what was its IC50?
[reply] 3.7

[ask] Follow-up item: COc1ccc(F)cc1C(=O)NCc1ccc(-n2nc(C3CCCOC3)c(N)c2C(N)=O)cc1 (stereo not shown) [Example A13]
[reply] 4.4

[ask] Follow-up item: COc1ccc(F)cc1C(=O)NCc1ccc(-n2nc(-c3cccs3)c(N)c2C(N)=O)cc1 [Example A14]
[reply] 7.9

[ask] Follow-up item: COc1ccccc1C(=O)NCc1ccc(-n2nc(C(C)C)c(N)c2C(N)=O)cc1 [Example A9]
[reply] 14

* * *

Target: BTK-C481S mutant (Homo sapiens, UniProt Q06187, C481S)
Sequence (Q06187 whole entry C481S): as the sequence (Q06187 whole entry C481S) above
Experiment: BTK-Y223 autophosphorylation in HEK293 cells stably expressing BTK-C481S (HTRF)
Settings: 2 hours treatment
Could you please report measured pIC50 for the items listed next?
For clarity, pIC50 is expressed as the negative log10 of concentration in mol/L.

[ask] Sample COc1ccc(F)cc1C(=O)NCc1ccc(-n2nc(C3CCOC3)c(N)c2C(N)=O)cc1 (centres unmarked) [Example A16] — what was its pIC50?
[reply] 6.64

[ask] Follow-up item: COc1ccc(F)cc1C(=O)NCc1ccc(-n2nc(C3CCC(F)(F)CC3)c(N)c2C(N)=O)cc1 [Example A22]
[reply] 6.92

[ask] Follow-up item: COc1ccc(F)cc1C(=O)NCc1ccc(-n2nc(C(C)C)c(N)c2C(N)=O)cc1 [Example A1]
[reply] 6.94

[ask] Follow-up item: COc1ccc(F)cc1C(=O)NCc1ccc(-n2nc(C3CCCOC3)c(N)c2C(N)=O)cc1 (centres unmarked) [Example A13]
[reply] 6.92

[ask] Follow-up item: COc1ccccc1C(=O)NCc1ccc(-n2nc(C(C)C)c(N)c2C(N)=O)cc1 [Example A9]
[reply] 6.77

[ask] Follow-up item: COc1ccc(F)cc1C(=O)NCc1ccc(-n2nc(C3CCCC3)c(N)c2C(N)=O)cc1 [Example A15]
[reply] 7.08

[ask] Follow-up item: COc1ccc(F)cc1C(=O)NCc1ccc(-n2nc(-c3cccs3)c(N)c2C(N)=O)cc1 [Example A14]
[reply] 6.68

[ask] Follow-up item: COc1ccc(F)cc1C(=O)NCc1ccc(-n2nc(C3CCOCC3)c(N)c2C(N)=O)cc1 [Example A12]
[reply] 6.74

* * *

Target: human BTK-WT (Homo sapiens)
Sequence (Q06187 whole entry): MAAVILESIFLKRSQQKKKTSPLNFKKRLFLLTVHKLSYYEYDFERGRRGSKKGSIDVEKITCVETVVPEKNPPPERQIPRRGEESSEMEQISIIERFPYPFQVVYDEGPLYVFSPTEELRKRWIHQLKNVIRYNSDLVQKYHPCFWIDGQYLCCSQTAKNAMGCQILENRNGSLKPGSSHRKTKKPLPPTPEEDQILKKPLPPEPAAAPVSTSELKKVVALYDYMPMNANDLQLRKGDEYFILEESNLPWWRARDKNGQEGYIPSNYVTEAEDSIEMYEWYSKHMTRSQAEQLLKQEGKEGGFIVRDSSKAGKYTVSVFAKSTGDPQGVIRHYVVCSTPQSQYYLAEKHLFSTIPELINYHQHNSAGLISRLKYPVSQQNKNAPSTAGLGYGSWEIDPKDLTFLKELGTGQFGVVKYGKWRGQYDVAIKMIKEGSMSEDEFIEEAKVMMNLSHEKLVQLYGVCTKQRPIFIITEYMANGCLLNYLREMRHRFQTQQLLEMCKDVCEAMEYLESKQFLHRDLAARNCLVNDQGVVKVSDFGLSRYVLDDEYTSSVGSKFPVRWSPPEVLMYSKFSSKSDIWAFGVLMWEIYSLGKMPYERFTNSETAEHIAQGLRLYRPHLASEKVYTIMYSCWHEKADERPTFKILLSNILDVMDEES
Test: BTK-Y223 autophosphorylation in HEK293 cells stably expressing BTK-WT (HTRF)
Conditions: 2 hours treatment
Value type: pIC50
For clarity, pIC50 is expressed as the negative log10 of concentration in mol/L.

[ask] Sample COc1ccc(F)cc1C(=O)NCc1ccc(-n2nc(-c3cccs3)c(N)c2C(N)=O)cc1 [Example A14] — what was its pIC50?
[reply] 7.09

[ask] Follow-up item: COc1ccc(F)cc1C(=O)NCc1ccc(-n2nc(C3CCOC3)c(N)c2C(N)=O)cc1 (centres unmarked) [Example A16]
[reply] 6.92

[ask] Follow-up item: COc1ccc(F)cc1C(=O)NCc1ccc(-n2nc(C(C)C)c(N)c2C(N)=O)cc1 [Example A1]
[reply] 7.26

[ask] Follow-up item: COc1ccccc1C(=O)NCc1ccc(-n2nc(C(C)C)c(N)c2C(N)=O)cc1 [Example A9]
[reply] 7.08

[ask] Follow-up item: COc1ccc(F)cc1C(=O)NCc1ccc(-n2nc(C3CCCOC3)c(N)c2C(N)=O)cc1 (centres unmarked) [Example A13]
[reply] 7.24

[ask] Follow-up item: COc1ccc(F)cc1C(=O)NCc1ccc(-n2nc(C3CCCC3)c(N)c2C(N)=O)cc1 [Example A15]
[reply] 7.57

[ask] Follow-up item: COc1ccc(F)cc1C(=O)NCc1ccc(-n2nc(C3CCOCC3)c(N)c2C(N)=O)cc1 [Example A12]
[reply] 6.89

[ask] Follow-up item: COc1ccc(F)cc1C(=O)NCc1ccc(-n2nc(C3CCC(F)(F)CC3)c(N)c2C(N)=O)cc1 [Example A22]
[reply] 7.13

* * *

System: human TMD-8 diffuse large B-cell lymphoma cells
Assay: BTK-dependent cell proliferation in human TMD-8 cells (CellTiter-Glo)
Format: cell-based
Details: TMD8, 72 h, TMD-8 DLBCL cells, 3 days, absolute IC50
Value type: IC50 (nM)
Dear colleague, please return just the value in nM, with no unit written.

[ask] Sample COc1ccc(F)cc1C(=O)NCc1ccc(-n2nc(C3CCCOC3)c(N)c2C(N)=O)cc1 (stereo not drawn) — what was its IC50?
[reply] 95

[ask] Follow-up item: "COc1ccc(F)cc1C(=O)NCc1ccc(-n2nc(C3CCOCC3)c(N)c2C(N)=O)cc1"
[reply] 160

[ask] Follow-up item: "COc1ccc(F)cc1C(=O)NCc1ccc(-n2nc(C3CCC(F)(F)CC3)c(N)c2C(N)=O)cc1"
[reply] 110

[ask] Follow-up item: COc1ccc(F)cc1C(=O)NCc1ccc(-n2nc(C3CCOC3)c(N)c2C(N)=O)cc1 (stereo not drawn)
[reply] 120

[ask] Follow-up item: "COc1ccc(F)cc1C(=O)NCc1ccc(-n2nc(-c3cccs3)c(N)c2C(N)=O)cc1"
[reply] 95

[ask] Follow-up item: "COc1ccccc1C(=O)NCc1ccc(-n2nc(C(C)C)c(N)c2C(N)=O)cc1"
[reply] 140
